Cited source: ChEMBL document CHEMBL2069215

IC50 overview
Tested on: MCF-10A
Test: Cytotoxicity against human MCF10A cells after 24 hrs by MTT assay
Format: cell-based
Write it as a number; the unit µM goes unstated.

Problem: What value of IC50 has been recorded for this entry: Clc1ccc(-c2cc(COc3ccccc3-c3nc4ccccc4s3)on2)cc1
Result: 38.8

Problem: Now the same for COc1ccc(-c2cc(COc3ccccc3-c3nc4ccccc4s3)on2)cc1
Result: 34.1

---

Test system: COLO 205
Test: Cell cycle arrest in human COLO205 cells assessed as accumulation at S phase at 16 uM after 24 hrs by FACS analysis (reference value: 3.56 +/- 0.40%)
Assay type: functional
Activity overview
Write it as a number; the unit % goes unstated.

Please review the following examples before continuing.
FC(F)(F)C(F)(F)C(F)(F)C(F)(F)C(F)(F)C(F)(F)CCn1cc(COc2ccccc2-c2nc3ccccc3s2)nn1
4.42
FC(F)(F)c1cccc(-n2cc(COc3ccccc3-c3nc4ccccc4s3)nn2)c1
2.68

Problem: What value of Activity has been recorded for this entry: FC(F)(F)C(F)(F)C(F)(F)C(F)(F)C(F)(F)C(F)(F)C(F)(F)C(F)(F)CCn1cc(COc2ccccc2-c2nc3ccccc3s2)nn1
Result: 3.79

Problem: Now the same for COc1ccc(-c2nc3cc(F)ccc3s2)cc1OC
Result: 4.31
